Measured values drawn from ChEMBL document CHEMBL1155985 for this set.

- Test system: Staphylococcus aureus
- Protocol: Antibacterial activity against methicillin-resistant Staphylococcus aureus by agar dilution method
- Type: functional
Measured Metric: MIC (µg/mL)

{"Chemical Structure": "C=C[C@]1(C)C[C@@H](OC(=O)CS[C@@H]2C[C@H]3CC[C@@H](C2)N3C)[C@]2(C)[C@H](C)CC[C@]3(CCC(=O)[C@H]32)[C@@H](C)[C@@H]1O", "Reported Result": 0.031}
{"Chemical Structure": "C=C[C@]1(C)C[C@@H](OC(=O)NC(=O)c2ccc(OC)cc2)[C@]2(C)[C@H](C)CC[C@]3(CCC(=O)[C@@H]32)[C@@H](C)[C@@H]1O", "Reported Result": 0.0625}
{"Chemical Structure": "CC(=O)NC[C@H]1CN(c2ccc(N3CCOCC3)c(F)c2)C(=O)O1", "Reported Result": 1}
{"Chemical Structure": "C=C[C@]1(C)C[C@@H](OC(=O)NC(=O)c2ccc(O)cc2)[C@]2(C)[C@H](C)CC[C@]3(CCC(=O)[C@@H]32)[C@@H](C)[C@@H]1O", "Reported Result": 0.125}
